Target: human IL-17RA on cells (human PBMC; human foreskin fibroblasts) (human, UniProt Q96F46 33-866)
Assay: cell-based or functional assay
QUANTITY KIND: % Inhib. of IL-5 production (TSLP treated human PBMC + IL-2 + IL-25), Expt. 1

>>> experimental_result("2.98.1 (antibody, V domains shown) VH: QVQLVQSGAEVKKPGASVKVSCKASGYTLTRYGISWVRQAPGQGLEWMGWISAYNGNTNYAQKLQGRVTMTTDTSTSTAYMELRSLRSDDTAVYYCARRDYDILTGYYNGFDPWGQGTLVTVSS VL: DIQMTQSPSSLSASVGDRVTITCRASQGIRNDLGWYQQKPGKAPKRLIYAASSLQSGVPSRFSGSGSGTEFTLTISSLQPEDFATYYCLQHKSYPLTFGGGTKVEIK")
"0%"
